Quick record: MIC, E. coli (NCTC 10418).
Readout type: MIC (µg/mL)

In [3]: df
Out[3]:
                                   compound  meas_value
0  CO/N=C(\C(=O)N[C@@H]1C(=O)N2C(C(=O)[O-])=C(C3CCOC3=O)CS[C@H]12)c1csc(N)n1.[Na+] (mixture of isomers) [Example 15]        0.25

[1] CO/N=C(\C(=O)N[C@@H]1C(=O)N2C(C(=O)O)=C(C3COC(=O)C3)CS[C@H]12)c1csc(N)n1 (some centres unmarked) [Example 8]
[2] Nc1nc(/C(=N/OCC(=O)O)C(=O)N[C@@H]2C(=O)N3C(C(=O)O)=C(C4CCC(=O)O4)CS[C@H]23)cs1 (some centres unmarked) [Example 10]
### Prompt Looking only at measured MIC, which entry is lower, 1 or 2 ? In your reply, give the label of the chosen option.
### Response 2
(2: 0.12 µg/mL, 1: 32 µg/mL)
